Biological target: human ether-à-go-go-related gene (hERG) potassium channel (human);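 further: peak tail current of the secondary pulse compared with the same well before compound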
Sequence (Q12809 whole entry, looked up): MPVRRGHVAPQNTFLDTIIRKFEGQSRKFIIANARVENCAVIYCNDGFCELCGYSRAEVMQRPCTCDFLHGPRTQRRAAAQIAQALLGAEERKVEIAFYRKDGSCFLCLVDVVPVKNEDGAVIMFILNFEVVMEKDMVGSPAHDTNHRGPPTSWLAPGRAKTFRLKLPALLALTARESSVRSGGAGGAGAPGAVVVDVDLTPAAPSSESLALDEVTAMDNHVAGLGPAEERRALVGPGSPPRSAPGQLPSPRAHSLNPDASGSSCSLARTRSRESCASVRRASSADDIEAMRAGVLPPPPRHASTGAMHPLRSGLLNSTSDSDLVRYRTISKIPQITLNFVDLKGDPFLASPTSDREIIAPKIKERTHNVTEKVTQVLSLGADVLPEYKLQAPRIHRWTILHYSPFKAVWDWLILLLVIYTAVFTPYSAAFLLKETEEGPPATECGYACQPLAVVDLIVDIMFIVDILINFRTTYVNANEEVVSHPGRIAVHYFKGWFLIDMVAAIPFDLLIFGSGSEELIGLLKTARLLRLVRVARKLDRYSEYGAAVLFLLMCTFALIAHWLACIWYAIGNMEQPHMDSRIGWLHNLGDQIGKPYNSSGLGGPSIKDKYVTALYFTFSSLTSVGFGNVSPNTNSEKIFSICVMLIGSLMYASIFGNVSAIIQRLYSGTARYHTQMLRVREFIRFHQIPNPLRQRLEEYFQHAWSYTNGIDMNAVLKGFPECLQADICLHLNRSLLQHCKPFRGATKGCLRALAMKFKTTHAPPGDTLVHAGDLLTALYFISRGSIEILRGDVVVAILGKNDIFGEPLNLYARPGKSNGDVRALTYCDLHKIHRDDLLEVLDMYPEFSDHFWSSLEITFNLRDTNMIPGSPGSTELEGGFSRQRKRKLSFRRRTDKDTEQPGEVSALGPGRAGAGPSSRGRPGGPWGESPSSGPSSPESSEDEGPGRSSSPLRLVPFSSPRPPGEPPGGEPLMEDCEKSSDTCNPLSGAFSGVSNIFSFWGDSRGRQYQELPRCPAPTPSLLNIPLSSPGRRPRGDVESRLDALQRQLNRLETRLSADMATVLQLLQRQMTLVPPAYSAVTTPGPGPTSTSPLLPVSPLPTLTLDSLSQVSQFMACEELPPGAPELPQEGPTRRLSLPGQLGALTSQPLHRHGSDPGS
Assay: primary screen, population patch clamp on CHO cells stably expressing hERG; higher = less effect of the substance
Procedure: Briefly, Chinese hamster ovary (CHO) cells stably expressing the hERG channel were dislodged from tissue culture flasks and dispensed into PPC plates. […] During the recording, background leak currents were estimated by a 100 ms step to -80 mV from an initial holding potential of -70 mV and subtracted from the subsequent current measurement. The campaign was conducted in two phases using slight differences in recording protocol. […]
Hit rate of the full screen: of about 310,000 compounds, about 14,000 (4.5%) showed an effect of 50% or more. The effect is printed as a negative number. The sample as a whole holds a higher share of strong results than the screen did.
The following molecules are shown together with reported hERG current change (%, negative = inhibition) at 10uM values.
// note: answer is a bare numeric in %

Please look up its hERG current change (%, negative = inhibition) at 10uM: `O=C(CCc1c[nH]c2ccccc12)NC1CC1`
14.1

Which value of hERG current change (%, negative = inhibition) at 10uM has been reported for `NC(=O)c1ccc(-c2noc(-c3cccc(Cl)c3)n2)cc1` in the records?
19.4

Returns the measured hERG current change (%, negative = inhibition) at 10uM for the input molecule. Input: `O=C(NCCc1c[nH]c2ccccc12)c1ccccc1`
4.79

Requested field: hERG current change (%, negative = inhibition) at 10uM. Item: `COC(=O)C1=CO[C@@H](C)[C@@H]2CN(CCc3c[nH]c4ccccc34)CC[C@H]12`
-57

Quick check: hERG current change (%, negative = inhibition) at 10uM of `CC(C)CN(CC(C)C)c1ccc(C=C2C(=O)NC(=S)NC2=O)cc1[N+](=O)[O-]` ?
9.99

What does the data say about its hERG current change (%, negative = inhibition) at 10uM? Entry: O=C(NC1CCCN(CCc2ccccc2)C1)c1c[nH]c2ccccc12 (stereo not shown)
-68.2

What measured hERG current change (%, negative = inhibition) at 10uM goes with `COc1ccc(CN(C)C(=O)c2cccc(Oc3ccccc3)c2)c(OC)c1OC` ?
-20.6
